procedure_text: in vitro
particulars: monkey, CC50, Vero E6
endpoint_name: CC50 at 3 days

QUERY: For the molecule Cc1c(-c2ccc(-c3ccccc3F)cc2)nc2ccc(F)cc2c1C(=O)O , report CC50 at 3 days.
RESULT: > 50 µM

---

procedure_text: in vitro
particulars: monkey, CC50, Vero E6
endpoint_name: CC50

QUERY: For the compound CCC(CC)COC(=O)[C@H](C)N[P@](=O)(OC[C@H]1O[C@@](C#N)(c2ccc3c(N)ncnn23)[C@H](O)[C@@H]1O)Oc1ccccc1 [remdesivir] , report CC50.
RESULT: > 50 µM

---

Tested on: SARS-CoV-2
procedure_text: microbe, parasite or virus in culture
Type: cell-based
particulars: Severe acute respiratory syndrome coronavirus 2, Vero C1008, read-out: remdesivir concentration to suppress viral replication to 50%
endpoint_name: pIC50
// pIC50 here means minus log10 of the molar concentration (mol/L)

QUERY: // output pIC50; input CCC(CC)COC(=O)[C@H](C)N[P@](=O)(OC[C@H]1O[C@@](C#N)(c2ccc3c(N)ncnn23)[C@H](O)[C@@H]1O)Oc1ccccc1 ; system SARS-CoV-2
RESULT: 7.00

---

procedure_text: in vitro
particulars: monkey, CC50 of remdesivir, brequinar 0.313 μM
endpoint_name: CC50

QUERY: For the compound CCC(CC)COC(=O)[C@H](C)N[P@](=O)(OC[C@H]1O[C@@](C#N)(c2ccc3c(N)ncnn23)[C@H](O)[C@@H]1O)Oc1ccccc1 [remdesivir] , report CC50.
RESULT: > 50 µM

---

procedure_text: in vitro
particulars: monkey, CC50
endpoint_name: CC50

QUERY: For the compound NC(=O)c1ncn([C@@H]2O[C@H](CO)[C@@H](O)[C@H]2O)n1 [ribavirin] , report CC50.
RESULT: > 50 µM

---

System: Vero E6 cells
endpoint_name: CC50

QUERY: For the compound CC(C)C[C@H](NC(=O)OCc1ccccc1)C(=O)N[C@@H](CC1CCNC1=O)C(O)S(=O)(=O)[O-].[Na+] (stereo partly shown) , report CC50.
RESULT: > 50 µM

---

procedure_text: in vivo
particulars: rodents
endpoint_name: Kp

QUERY: For the compound Cc1c(-c2ccc(-c3ccccc3F)cc2)nc2ccc(F)cc2c1C(=O)O [brequinar] , report Kp.
RESULT: ~0.5

---

procedure_text: in vitro
particulars: monkey, CC50 of remdesivir, brequinar 0.000 μM
endpoint_name: CC50

QUERY: For the compound CCC(CC)COC(=O)[C@H](C)N[P@](=O)(OC[C@H]1O[C@@](C#N)(c2ccc3c(N)ncnn23)[C@H](O)[C@@H]1O)Oc1ccccc1 [remdesivir] , report CC50.
RESULT: > 25 µM

---

Tested on: SARS-CoV-2
procedure_text: microbe, parasite or virus in culture
Format: cell-based
particulars: Severe acute respiratory syndrome coronavirus 2, Vero C1008, read-out: EC50 of remdesivir
pEC50: −log10 of the molar value.
endpoint_name: pEC50

QUERY: For the molecule CCC(CC)COC(=O)[C@H](C)N[P@](=O)(OC[C@H]1O[C@@](C#N)(c2ccc3c(N)ncnn23)[C@H](O)[C@@H]1O)Oc1ccccc1 , report pEC50.
RESULT: > 7.71

---

procedure_text: in vitro
particulars: monkey, CC50 of remdesivir, brequinar 1.250 μM
endpoint_name: CC50

QUERY: For the compound CCC(CC)COC(=O)[C@H](C)N[P@](=O)(OC[C@H]1O[C@@](C#N)(c2ccc3c(N)ncnn23)[C@H](O)[C@@H]1O)Oc1ccccc1 , report CC50.
RESULT: > 50 µM

---

Test system: SARS-CoV-2
procedure_text: microbe, parasite or virus in culture
Format: cell-based
particulars: read-out: IC50: Concentration inhibiting 50% of the virus-induced CPE compared to the no infection control
endpoint_name: pIC50
// pIC50 here means minus log10 of the molar concentration (mol/L)

QUERY: For the compound CC(C)C[C@H](NC(=O)OCc1ccccc1)C(=O)N[C@@H](CC1CCNC1=O)C(O)S(=O)(=O)[O-].[Na+] (stereo partly shown) [GC-376] , report pIC50.
RESULT: 5.69

---

Tested on: SARS-CoV-2
procedure_text: microbe, parasite or virus in culture
Format: cell-based
particulars: Severe acute respiratory syndrome coronavirus 2, Vero C1008; read-out: IC50: Concentration inhibiting 50% of the virus-induced CPE compared to the no infection control
endpoint_name: pIC50
// pIC50 here means minus log10 of the molar concentration (mol/L)

QUERY: // output pIC50; input CCC(CC)COC(=O)[C@H](C)N[P@](=O)(OC[C@H]1O[C@@](C#N)(c2ccc3c(N)ncnn23)[C@H](O)[C@@H]1O)Oc1ccccc1 ; system SARS-CoV-2
RESULT: 6.09

---

Test system: SARS-CoV-2
procedure_text: microbe, parasite or virus in culture
Format: cell-based
particulars: Severe acute respiratory syndrome coronavirus 2, Vero C1008, brequinar 1.250 μM; read-out: IC50 of remdesivir
pIC50: −log10 of the molar value.
endpoint_name: pIC50

QUERY: For the compound CCC(CC)COC(=O)[C@H](C)N[P@](=O)(OC[C@H]1O[C@@](C#N)(c2ccc3c(N)ncnn23)[C@H](O)[C@@H]1O)Oc1ccccc1 [remdesivir] , report pIC50.
RESULT: > 7.71

The origin of these recorded values is patent US20210290651A1.
